Target: Cannabinoid receptor 1 (Homo sapiens, UniProt P21554)
Sequence (P21554 whole entry): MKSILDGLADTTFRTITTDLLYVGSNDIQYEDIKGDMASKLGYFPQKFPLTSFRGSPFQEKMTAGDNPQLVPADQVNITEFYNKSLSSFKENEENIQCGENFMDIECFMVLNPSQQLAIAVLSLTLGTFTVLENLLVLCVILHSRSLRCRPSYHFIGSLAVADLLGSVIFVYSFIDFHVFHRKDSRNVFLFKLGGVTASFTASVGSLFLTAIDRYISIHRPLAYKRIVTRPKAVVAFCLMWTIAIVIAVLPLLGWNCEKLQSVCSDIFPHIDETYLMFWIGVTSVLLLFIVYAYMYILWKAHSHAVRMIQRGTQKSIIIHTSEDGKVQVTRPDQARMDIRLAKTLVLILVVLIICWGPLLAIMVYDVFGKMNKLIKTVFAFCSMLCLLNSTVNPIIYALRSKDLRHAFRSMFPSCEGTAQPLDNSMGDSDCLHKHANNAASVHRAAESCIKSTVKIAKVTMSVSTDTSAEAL
Test: Positive allosteric modulatory activity at human CB1R expressed in CHO-K1 cells assessed as increase in CP55940-induced inhibition of forskolin-stimulated cAMP production after 30 mins in presence of CP55940 at EC20 concentration by hit-hunter cAMP assay relative to control
Assay type: functional, cell-based
For each of the compounds below, state its Emax.
Give bare numbers, in %.

Some compounds with known Emax results, for comparison:
Measured Emax, O=[N+]([O-])CC(c1ccccn1)c1c(-c2ccccc2)[nH]c2ccccc12 (stereo not given) : 130

Short answer for O=[N+]([O-])CC(c1ccccc1)c1c(-c2ccccc2)[nH]c2cnccc12 (stereo not given) : Emax was 5.2

Quick one: give me Emax for each item below, same order please.
1. O=[N+]([O-])CC(c1ccccc1F)c1c(-c2cccc(F)c2)[nH]c2cc(F)ccc12 (stereo not given)
2. O=[N+]([O-])CC(c1ccccc1)c1c(-c2ccccc2)[nH]c2cccnc12 (stereo not given)
3. O=[N+]([O-])CC(c1cccc(F)c1)c1c(-c2ccccc2)[nH]c2ccccc12 (stereo not given)

1: 93; 2: 81; 3: 130

###

Kindly state EC50 for each of the entries shown.
Target: Cannabinoid receptor 1 (Rattus norvegicus, UniProt P20272)
Sequence (P20272 whole entry): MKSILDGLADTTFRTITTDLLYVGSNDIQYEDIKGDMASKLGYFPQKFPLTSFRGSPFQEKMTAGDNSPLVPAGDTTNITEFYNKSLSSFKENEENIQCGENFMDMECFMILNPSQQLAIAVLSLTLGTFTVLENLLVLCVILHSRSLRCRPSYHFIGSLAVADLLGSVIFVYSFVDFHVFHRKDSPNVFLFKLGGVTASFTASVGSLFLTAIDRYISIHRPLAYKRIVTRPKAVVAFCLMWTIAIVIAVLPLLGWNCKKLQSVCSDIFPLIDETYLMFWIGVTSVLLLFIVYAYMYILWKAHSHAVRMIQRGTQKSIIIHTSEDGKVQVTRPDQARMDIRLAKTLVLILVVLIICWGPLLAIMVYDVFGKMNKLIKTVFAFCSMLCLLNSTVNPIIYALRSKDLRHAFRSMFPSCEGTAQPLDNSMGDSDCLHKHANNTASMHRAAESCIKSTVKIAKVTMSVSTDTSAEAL
Assay: Allosteric agonist activity at N-terminal GFP-tagged rat CB1R expressed in HEK293 cells assessed as inhibition of forskolin-induced cAMP production after 30 min by TR-FRET assay
Answers are plain numbers, in µM.

Record for O=[N+]([O-])CC(c1ccccc1F)c1c(-c2cccc(F)c2)[nH]c2cc(F)ccc12 (configuration not stated) under target or system Cannabinoid receptor 1 (Rattus norvegicus, UniProt P20272): EC50 reported as 0.027

// switching to the query compound
Form: item O=[N+]([O-])CC(c1ccccc1F)c1c(-c2cccc(F)c2)[nH]c2c(F)cccc12 (configuration not stated) ; test system Cannabinoid receptor 1 (Rattus norvegicus, UniProt P20272); EC50: 0.026

###

Target: Cannabinoid receptor 1 (Homo sapiens, UniProt P21554)
Assay: Displacement of [3H]CP55940 from human CB1R receptor expressed in CHO cell membranes after 60 mins by liquid scintillation spectrometry analysis
Value kind: pKi
Answers are plain numbers, as −log10 of the molar value.

Provide reported pKi for each item, in the same order as listed.
1. O=[N+]([O-])CC(c1ccccc1F)c1c(-c2cccc(F)c2)[nH]c2c(F)cccc12 (configuration not stated)
2. O=[N+]([O-])CC(c1ccccc1F)c1c(-c2cccc(F)c2)[nH]c2cc(F)ccc12 (configuration not stated)

1: 7.03; 2: 7.06

###

Biological target: Cannabinoid receptor 1 (Homo sapiens, UniProt P21554)
Test: Positive allosteric modulatory activity at human CB1R expressed in CHO-K1 cells assessed as increase in CP55940-induced inhibition of forskolin-stimulated cAMP production after 30 mins in presence of CP55940 at EC20 concentration by hit-hunter cAMP assay
Type: functional, cell-based
Value kind: pEC50
Numbers only, as −log10 of the molar value.

Examples with their reported pEC50 follow.
Entry O=[N+]([O-])CC(c1ccccc1)c1c(-c2ccccc2)[nH]c2cccc(F)c12 (centres undefined) ; pEC50 = 6.89

Given item O=[N+]([O-])CC(c1ccccc1)c1c(-c2ccccc2)[nH]c2cnccc12 (centres undefined) , the value recorded as its pEC50 is 6.35

// field: pEC50; key: O=[N+]([O-])CC(c1ccccc1)c1c(-c2ccccc2)[nH]c2ncccc12 (centres undefined) ; value = 5.96

For every item below, please supply its pEC50.
1. O=[N+]([O-])CC(c1ccccc1)c1c(-c2ccc(F)cc2)[nH]c2ccccc12 (centres undefined)
2. O=[N+]([O-])CC(c1ccc(F)cc1)c1c(-c2ccccc2)[nH]c2cc(F)ccc12 (centres undefined)

1. 5.80
2. 5.89

I'm hoping you can list pEC50 for every compound here, please.
1. O=[N+]([O-])CC(c1ccccc1)c1c(-c2ccccc2)[nH]c2c(F)cccc12 (centres undefined)
2. O=[N+]([O-])CC(c1ccccc1F)c1c(-c2cccc(F)c2)[nH]c2c(F)cccc12 (centres undefined)
3. O=[N+]([O-])CC(c1ccccc1F)c1c(-c2ccccc2)[nH]c2ccccc12 (centres undefined)

1. 7.66
2. 8.04
3. 7.37

###

Biological target: Cannabinoid receptor 1 (Homo sapiens)
Experiment: Agonist activity at human CB1 receptor expressed in CHO cell membranes assessed as increase in G-protein coupling by measuring [35S]GTPgammaS binding after 90 mins in presence of [35S]GTPgammaS by liquid scintillation analysis
Assay type: functional
Task for the reader: assign each of the following compounds its reported pEC50.
Answers are plain numbers, as −log10 of the molar value.

Recorded pEC50 (compound O=[N+]([O-])CC(c1ccccc1F)c1c(-c2cccc(F)c2)[nH]c2cc(F)ccc12 (configuration not stated) ): 7.33

Could you now look at the following compound, please?
GET /value?item= O=[N+]([O-])CC(c1ccccc1F)c1c(-c2cccc(F)c2)[nH]c2c(F)cccc12 (configuration not stated) &field=pEC50 returns 7.48

###

Target: Cannabinoid receptor 1 (Homo sapiens)
Test: Positive allosteric modulatory activity at human CB1R expressed in CHO-K1 cells assessed as increase in CP55940-induced inhibition of forskolin-stimulated cAMP production after 30 mins in presence of CP55940 at EC20 concentration by hit-hunter cAMP assay
Assay type: functional, cell-based
Value kind: EC50 (nM)
Give bare numbers, in nM.

// known answers, use as guide
// recorded EC50 for O=[N+]([O-])CC(c1cccc(F)c1)c1c(-c2ccccc2)[nH]c2ccccc12 (centres undefined) : 730

Entry under test: O=[N+]([O-])CC(c1ccccc1)c1c(-c2cccnc2)[nH]c2ccccc12 (centres undefined) . Its EC50 was 1100

Measured EC50 of O=[N+]([O-])CC(c1ccccc1F)c1c(-c2ccccc2)[nH]c2cc(F)ccc12 (centres undefined) : 58

Notebook: O=[N+]([O-])CC(c1ccccc1)c1c(-c2ccccc2F)[nH]c2ccccc12 (centres undefined) , EC50 read as 1400

Recorded result, O=[N+]([O-])CC(c1ccccc1)c1c(-c2cccc(F)c2)[nH]c2ccccc12 (centres undefined) , EC50: 80

The following compounds each have a reported value; give each one's EC50.
1. O=[N+]([O-])CC(c1ccccc1)c1c(-c2ccncc2)[nH]c2ccccc12 (centres undefined)
2. O=[N+]([O-])CC(c1cccnc1)c1c(-c2ccccc2)[nH]c2ccccc12 (centres undefined)
3. O=[N+]([O-])CC(c1ccccc1F)c1c(-c2ccccc2)[nH]c2c(F)cccc12 (centres undefined)
4. O=[N+]([O-])CC(c1ccc(F)cc1)c1c(-c2cccc(F)c2)[nH]c2cc(F)ccc12 (centres undefined)

[3100, 3100, 21, 1150]

###

For each of the compounds below, state its Emax.
Biological target: Cannabinoid receptor 1 (Homo sapiens)
Assay: Positive allosteric modulatory activity at human CB1R expressed in CHO-K1 cells assessed as increase in CP55940-induced inhibition of forskolin-stimulated cAMP production after 30 mins in presence of CP55940 at EC20 concentration by hit-hunter cAMP assay relative to control
Format: functional, cell-based
One number for each entry, in %.

These solved cases illustrate the format of a correct answer.
Data point: O=[N+]([O-])CC(c1ccccc1)c1c(-c2ccccc2)[nH]c2ccc(F)cc12 (centres undefined) ; Emax = 130

Field Emax (entry O=[N+]([O-])CC(c1ccncc1)c1c(-c2ccccc2)[nH]c2ccccc12 (centres undefined) ) reads 110

The value of Emax measured for the compound O=[N+]([O-])CC(c1ccccc1)c1c(-c2ccccc2)[nH]c2cccc(F)c12 (centres undefined) turned out to be 120

// field: Emax; key: O=[N+]([O-])CC(c1ccccc1)c1c(-c2ccccc2)[nH]c2cc(F)ccc12 (centres undefined) ; value = 120

# Emax of O=[N+]([O-])CC(c1ccc(F)cc1)c1c(-c2cccc(F)c2)[nH]c2c(F)cccc12 (centres undefined) = 110

# Emax (compound: O=[N+]([O-])CC(c1ccc(F)cc1)c1c(-c2ccccc2)[nH]c2ccccc12 (centres undefined) ) is 110

I need Emax for every entry listed below, if you could help.
1. O=[N+]([O-])CC(c1ccc(F)cc1)c1c(-c2ccccc2)[nH]c2c(F)cccc12 (centres undefined)
2. O=[N+]([O-])CC(c1ccccc1)c1c(-c2ccc(F)cc2)[nH]c2ccccc12 (centres undefined)

1: 121; 2: 120

###

Target: Cannabinoid receptor 1 (Homo sapiens)
Test: Positive allosteric modulatory activity at human CB1R expressed in CHO-K1 cells assessed as increase in CP55940-induced inhibition of forskolin-stimulated cAMP production after 30 mins in presence of CP55940 at EC20 concentration by hit-hunter cAMP assay relative to control
Format: functional, cell-based
For each of the compounds below, state its Emax.
Answers are plain numbers, in %.

So for O=[N+]([O-])CC(c1cccnc1)c1c(-c2ccccc2)[nH]c2ccccc12 (stereo unspecified) , the logged Emax turned out to be 170

The following compounds each have a reported value; give each one's Emax.
1. O=[N+]([O-])CC(c1ccccc1)c1c(-c2ccccc2F)[nH]c2ccccc12 (stereo unspecified)
2. O=[N+]([O-])CC(c1ccc(F)cc1)c1c(-c2ccccc2)[nH]c2cc(F)ccc12 (stereo unspecified)
3. O=[N+]([O-])CC(c1ccccc1F)c1c(-c2ccccc2)[nH]c2ccccc12 (stereo unspecified)
4. O=[N+]([O-])CC(c1ccccc1)c1c(-c2ccccc2)[nH]c2c(F)cccc12 (stereo unspecified)
5. O=[N+]([O-])CC(c1ccccc1)c1c(-c2ccccc2)[nH]c2ncccc12 (stereo unspecified)
6. O=[N+]([O-])CC(c1ccccc1F)c1c(-c2cccc(F)c2)[nH]c2c(F)cccc12 (stereo unspecified)
7. O=[N+]([O-])CC(c1ccc(F)cc1)c1c(-c2cccc(F)c2)[nH]c2cc(F)ccc12 (stereo unspecified)

140
47
110
120
39
93
91

Parameter requested: Emax. Apply to each item below.
1. O=[N+]([O-])CC(c1ccccc1)c1c(-c2ccncc2)[nH]c2ccccc12 (stereo unspecified)
2. O=[N+]([O-])CC(c1ccccc1)c1c(-c2cccnc2)[nH]c2ccccc12 (stereo unspecified)
3. O=[N+]([O-])CC(c1ccccc1)c1c(-c2ccccc2)[nH]c2ccncc12 (stereo unspecified)

[88, 150, 4]

Every entry's value here was drawn from ChEMBL document CHEMBL4376840.
